Catalogue of molecules with associated T/C
# Test system: L1210 leukemia ip in BDF1 mice, survival T/C
# method.summary: NCI In Vivo Anticancer Drug Screen. Data for tumor model L1210 Leukemia (intraperitoneal) in B6D2F1 (BDF1) mice
# condition.info: endpoint: mean survival time; dose: 400.0 mg/kg/injection; schedule: Q04DX003 (ip); vehicle: Klucel (hydroxypropylcellulose) (HPC); higher = longer survival
Inconclusive results and toxic doses are left out.
attribute.measured: T/C

INSERT INTO measurements (molecule, tested_system, readout_value) VALUES
  ('Cc1c(N2CCCCC2)[nH]c2ccccc12', 'L1210 leukemia ip in BDF1 mice, survival T/C', '88 % of control'),
  ('O=C1OC2C3c4ccccc4C(c4c3ccc3ccccc43)C2O1 (stereo not given)', 'L1210 leukemia ip in BDF1 mice, survival T/C', '95 % of control'),
  ('COc1ccc(OC(=O)Nc2ccc(Cl)c(Cl)c2)cc1', 'L1210 leukemia ip in BDF1 mice, survival T/C', '102 % of control'),
  ('CNC(=S)NNc1ccccc1', 'L1210 leukemia ip in BDF1 mice, survival T/C', '103 % of control'),
  ('COc1ccc(Sc2ccccc2N)c([N+](=O)[O-])c1', 'L1210 leukemia ip in BDF1 mice, survival T/C', '92 % of control'),
  ('CC(O)C(O)C(O)C(O)/C=N/O (stereo not given)', 'L1210 leukemia ip in BDF1 mice, survival T/C', '102 % of control'),
  ('O=C(NCCCl)NCC1CCCO1 (stereo not given)', 'L1210 leukemia ip in BDF1 mice, survival T/C', '90 % of control'),
  ('C/C=C\COC(=O)COc1ccc(Cl)cc1', 'L1210 leukemia ip in BDF1 mice, survival T/C', '107 % of control'),
  ('C/C(=C\c1ccccc1)C(=O)c1ccc(-c2ccccc2)cc1', 'L1210 leukemia ip in BDF1 mice, survival T/C', '93 % of control'),
  ('Cc1cc(C2CCCCC2)c2ccccc2c1C', 'L1210 leukemia ip in BDF1 mice, survival T/C', '106 % of control'),
  ('CCCCCCCCCCCCCCC(S(=O)(=O)CC)S(=O)(=O)CC', 'L1210 leukemia ip in BDF1 mice, survival T/C', '90 % of control'),
  ('CCc1ccc(NC(=O)Nc2cccc3ccccc23)cc1', 'L1210 leukemia ip in BDF1 mice, survival T/C', '96 % of control'),
  ('C=CCc1c(C)ccc(C)c1OC', 'L1210 leukemia ip in BDF1 mice, survival T/C', '102 % of control'),
  ('CCCCCNC(=O)CCC', 'L1210 leukemia ip in BDF1 mice, survival T/C', '95 % of control'),
  ('Cc1c(Cl)cccc1N=Cc1ccccc1O', 'L1210 leukemia ip in BDF1 mice, survival T/C', '98 % of control'),
  ('Clc1nc(Nc2ccccc2)nc(Nc2ccccc2)n1', 'L1210 leukemia ip in BDF1 mice, survival T/C', '95 % of control'),
  ('O=S(=O)(Nc1ccccc1)c1ccc(C2CC3(Cl)C(Cl)=C(Cl)C2(Cl)C3(Cl)Cl)cc1 (stereo not given)', 'L1210 leukemia ip in BDF1 mice, survival T/C', '92 % of control'),
  ('O/N=C/c1nc2ccccc2s1', 'L1210 leukemia ip in BDF1 mice, survival T/C', '118 % of control'),
  ('COc1ccc(S(=O)(=O)NC(=O)NCCC=C(C)C)cc1', 'L1210 leukemia ip in BDF1 mice, survival T/C', '101 % of control'),
  ('COc1ccc(OC)c(NC(=O)Oc2ccc(SC)cc2)c1', 'L1210 leukemia ip in BDF1 mice, survival T/C', '86 % of control');

----------
# Tested on: L1210 leukemia ip in BDF1 mice, survival T/C
# method.summary: NCI In Vivo Anticancer Drug Screen. Data for tumor model L1210 Leukemia (intraperitoneal) in B6D2F1 (BDF1) mice
# condition.info: endpoint: mean survival time; dose: 150.0 mg/kg/injection; schedule: Q01DX001 (ip); vehicle: saline; higher = longer survival
Toxic doses and inconclusive results are not listed.
attribute.measured: T/C

INSERT INTO results (compound, tested_system, attribute_measured, readout_value) VALUES
  ('N/N=C1\CC(=O)NC(=O)N1', 'L1210 leukemia ip in BDF1 mice, survival T/C', 'T/C', '96 % of control'),
  ('CC[n+]1cc(-c2ccc(NC(=O)/C=C\c3ccc(C(=O)Nc4ccc(-c5c[n+](CC)c(N)nc5N)cc4)cc3)cc2)c(N)nc1N', 'L1210 leukemia ip in BDF1 mice, survival T/C', 'T/C', '107 % of control'),
  ('ClC1(c2ccccc2)C2CCCCC21 (stereo unspecified)', 'L1210 leukemia ip in BDF1 mice, survival T/C', 'T/C', '100 % of control'),
  ('CCCCN(CCCC)C(=S)[S-].CCCCN(CCCC)C(=S)[S-].[Zn]', 'L1210 leukemia ip in BDF1 mice, survival T/C', 'T/C', '93 % of control'),
  ('O=C(O)c1c(O)cc(=O)oc1-c1ccccc1Cl', 'L1210 leukemia ip in BDF1 mice, survival T/C', 'T/C', '101 % of control'),
  ('O=c1[nH]nc(-c2ccc(C(F)(F)F)cc2)s1', 'L1210 leukemia ip in BDF1 mice, survival T/C', 'T/C', '104 % of control'),
  ('CC[n+]1cccc(C#N)c1', 'L1210 leukemia ip in BDF1 mice, survival T/C', 'T/C', '103 % of control'),
  ('Cc1ccc(S(=O)(=O)OCC23CCC2(COS(=O)(=O)c2ccc(C)cc2)COC3)cc1 (stereo unspecified)', 'L1210 leukemia ip in BDF1 mice, survival T/C', 'T/C', '93 % of control'),
  ('CCCCC(=O)NC1=C(Cl)C(=O)c2ccccc2C1=O', 'L1210 leukemia ip in BDF1 mice, survival T/C', 'T/C', '90 % of control'),
  ('C/C(=N\N=C(/C)c1ccc2cc3c(cc2c1)OCO3)c1ccc2cc3c(cc2c1)OCO3', 'L1210 leukemia ip in BDF1 mice, survival T/C', 'T/C', '92 % of control'),
  ('Brc1cccc2c1C[n+]1ccccc1-2', 'L1210 leukemia ip in BDF1 mice, survival T/C', 'T/C', '92 % of control');

----------
# Tested on: L1210 leukemia ip in BDF1 mice, survival T/C
# method.summary: NCI In Vivo Anticancer Drug Screen. Data for tumor model L1210 Leukemia (intraperitoneal) in B6D2F1 (BDF1) mice
# condition.info: endpoint: mean survival time; dose: 25.0 mg/kg/injection; schedule: Q01DX009 (ip); vehicle: water; higher = longer survival
# Procedure: The antitumor activity of compounds was measured in mice bearing transplantable tumors. Survival or tumor size were measured and the results are expressed as the measurement made in the treated group (T) divided by the measurement made in the vehicle treated control group (C). The tumor model used in this assay is L1210 Leukemia (intraperitoneal) in B6D2F1 (BDF1) mice
Toxic doses and inconclusive results are not listed.
attribute.measured: T/C

INSERT INTO assay_data (compound, attribute_measured, readout_value) VALUES
  ('O=C(NC1CSSC1)C(Cc1ccccc1)N1C(=O)c2ccccc2C1=O (centres undefined)', 'T/C', '107 % of control'),
  ('Cc1cn(C)c2nccnc12', 'T/C', '104 % of control'),
  ('CCOC(=O)Nc1nc(Cl)c(Cl)nc1Cl', 'T/C', '93 % of control'),
  ('O=[N+]([O-])c1cccc2nc(N/N=C/c3ccccc3O)ccc12', 'T/C', '89 % of control');

----------
# System: L1210 leukemia ip in BDF1 mice, survival T/C
# method.summary: NCI In Vivo Anticancer Drug Screen. Data for tumor model L1210 Leukemia (intraperitoneal) in B6D2F1 (BDF1) mice
# condition.info: endpoint: mean survival time; dose: 400.0 mg/kg/injection; schedule: Q01DX009 (ip); vehicle: water; higher = longer survival
Toxic doses and inconclusive results are not listed.
Catalogue of molecules with associated T/C
attribute.measured: T/C

INSERT INTO measurements (molecule, readout_value) VALUES
  ('c1ccc(-c2c(-c3ccccc3)c(-c3ccccc3)c(-c3ccccc3)c(-c3ccccc3)c2-c2ccccc2)cc1', '97 % of control'),
  ('O=[N+]([O-])c1cccc2nc(N/N=C/c3ccccc3O)ccc12', '93 % of control'),
  ('CCN(CC)CCCNC(C)CCCN(CC)CC (stereo not given)', '93 % of control'),
  ('CCOC(=O)Nc1nc(Cl)c(Cl)nc1Cl', '96 % of control'),
  ('O=C(NC1CSSC1)C(Cc1ccccc1)N1C(=O)c2ccccc2C1=O (stereo not given)', '96 % of control');
